Origin of the recorded values: ChEMBL document CHEMBL1125205

This section presents compounds with their documented IC50 values.
biological target: UniProt:P51639; test: In vitro for inhibition of rat HMG-CoA reductase.; settings: read-out: I50
Sequence (P51639 whole entry): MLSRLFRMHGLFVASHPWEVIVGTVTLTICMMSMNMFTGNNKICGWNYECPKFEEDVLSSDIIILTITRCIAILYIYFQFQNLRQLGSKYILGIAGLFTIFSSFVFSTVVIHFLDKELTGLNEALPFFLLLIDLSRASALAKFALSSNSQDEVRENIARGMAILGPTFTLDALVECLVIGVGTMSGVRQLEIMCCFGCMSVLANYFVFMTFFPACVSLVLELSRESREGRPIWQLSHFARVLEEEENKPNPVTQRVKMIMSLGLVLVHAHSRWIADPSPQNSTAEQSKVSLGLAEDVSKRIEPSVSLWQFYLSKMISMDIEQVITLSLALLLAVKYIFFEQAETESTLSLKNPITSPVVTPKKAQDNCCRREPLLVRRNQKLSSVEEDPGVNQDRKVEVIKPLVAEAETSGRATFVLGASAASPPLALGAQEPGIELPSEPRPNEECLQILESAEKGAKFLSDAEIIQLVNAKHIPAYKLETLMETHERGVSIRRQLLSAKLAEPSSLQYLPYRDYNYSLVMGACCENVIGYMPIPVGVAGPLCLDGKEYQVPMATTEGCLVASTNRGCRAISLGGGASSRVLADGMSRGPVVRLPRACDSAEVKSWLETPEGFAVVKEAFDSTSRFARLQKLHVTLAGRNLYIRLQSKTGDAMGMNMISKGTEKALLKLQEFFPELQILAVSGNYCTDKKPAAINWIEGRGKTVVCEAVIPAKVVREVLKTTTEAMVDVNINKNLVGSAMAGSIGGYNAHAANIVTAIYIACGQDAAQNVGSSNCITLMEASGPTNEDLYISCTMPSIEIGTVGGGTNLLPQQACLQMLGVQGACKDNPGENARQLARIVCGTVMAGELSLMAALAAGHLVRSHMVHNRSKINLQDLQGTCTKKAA

Line notation: CCc1nc(-c2ccccc2)c(C)c(-c2ccc(F)cc2)c1CCP(=O)(O)C[C@H](O)CC(=O)O
IC50, nM: 79.8
//
Line notation: CC(C)c1nc(-c2ccccc2)c(F)c(-c2ccc(F)cc2)c1C#CP(=O)(O)C[C@H](O)CC(=O)O
IC50, nM: 44.9
//
Line notation: CC(C)c1cc(-c2ccccc2)nc(-c2ccc(F)cc2)c1C#CP(=O)(O)C[C@H](O)CC(=O)O
IC50, nM: 420
